Sourced from the supplement of paper PMC10567573

B1: ZNF449 (parent)
chain: RIHSGEEPHKCPECGKRFLRSSDL

Variants of: B1
experiment: protein stability index of a GFP-peptide fusion (GPS, HEK-293T) (PSI 1-6); higher = more stable;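 further: lentivirally expressed fusions sorted by FACS into six bins by GFP to DsRed ratio, PSI derived from sequencing read proportions per bin multiplied by bin number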
protocol conditions: c terminus: a fixed tail appended
Give measured protein stability index for each item. Keep answers brief.
One number for each entry.

Solved cases below.
RIHSGEEPHKCPECGKRFLNSSDL : 4.21
RIHSGFEPHKCPECGKRFLRSSDL : 2.95
RIHSGEEPHKCPECGDRFLRSSDL : 4.41
RIHSGEEPHKCPECGNRFLRSSDL : 3.58

Dear colleague, could you send me protein stability index for each of the items below? Thanks.
1. RIHSGEEPHKCPECEKRFLRSSDL
2. RIHSGEEPHKCPECGKRFLISSDL
3. RIHSGEEPMKCPECGKRFLRSSDL
4. RIHSGEEPHKCAECGKRFLRSSDL
5. RIHSGEEPHKCPEDGKRFLRSSDL

1: 4.24; 2: 2.91; 3: 3.42; 4: 3.15; 5: 4.58
